Target: recombinant human DAO (diamine oxidase) (Homo sapiens)
Construct: purchased R&D systems
Sequence (P19801 20-751): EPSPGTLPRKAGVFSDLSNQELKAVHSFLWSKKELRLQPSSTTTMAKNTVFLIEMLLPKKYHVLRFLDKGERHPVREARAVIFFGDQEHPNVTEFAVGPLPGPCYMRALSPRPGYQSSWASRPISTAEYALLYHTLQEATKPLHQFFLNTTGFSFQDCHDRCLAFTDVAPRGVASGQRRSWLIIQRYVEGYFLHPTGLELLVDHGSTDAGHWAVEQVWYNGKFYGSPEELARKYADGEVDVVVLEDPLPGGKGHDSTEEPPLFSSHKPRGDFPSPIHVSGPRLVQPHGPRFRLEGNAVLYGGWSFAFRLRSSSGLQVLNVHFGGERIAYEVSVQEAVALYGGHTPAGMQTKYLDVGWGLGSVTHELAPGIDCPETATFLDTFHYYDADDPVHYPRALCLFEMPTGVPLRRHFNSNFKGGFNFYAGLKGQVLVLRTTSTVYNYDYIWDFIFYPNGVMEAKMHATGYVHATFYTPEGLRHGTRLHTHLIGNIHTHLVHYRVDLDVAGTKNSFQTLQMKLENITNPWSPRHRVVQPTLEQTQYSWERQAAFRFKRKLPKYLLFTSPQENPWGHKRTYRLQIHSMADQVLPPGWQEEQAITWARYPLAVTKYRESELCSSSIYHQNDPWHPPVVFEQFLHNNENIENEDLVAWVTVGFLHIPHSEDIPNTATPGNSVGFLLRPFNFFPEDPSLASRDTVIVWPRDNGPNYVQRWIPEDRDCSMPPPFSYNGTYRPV
Assay: Activity on recombinant human DAO, Amplex Red method, 1 mM putrescine substrate
Format: biochemical
Settings: recombinant human DAO, 1 mM putrescine; * = between 10 and 100 nM, ** = between 300 and 1000 nM; read-out: Inhibitory Activity (IC50, nM) DAO
Counter-ions that a name gives are not always drawn.
Measurement Name: IC50 (nM)
Write down the numeric answer in nM and omit the unit.

# Compound, IC50, nM
measured = [
    ("CC(=O)Nc1ccc(-c2cccc(-n3cnn(C/C(=C\\F)CN)c3=O)c2)cc1 [Example 56, hydrochloride]", 110),
    ("Cc1cc(-n2cnn(C/C(=C\\F)CN)c2=O)cnc1Br [Example 26, hydrochloride]", 14),
]

Using the record for NC/C(=C\F)Cn1ncn(-c2cccc(-c3cc4ccccc4s3)c2)c1=O [Example 101, hydrochloride] , report its IC50.
34

Would you kindly repeat that for Cc1cc(-c2ccc(N3CCNCC3)cc2)cnc1-n1cnn(C/C(=C/F)CN)c1=O [Example 145, hydrochloride] ?
13000

Try this compound too: Cc1cc(-c2ccc(-c3cnon3)cc2)cnc1-n1cnn(C/C(=C/F)CN)c1=O [Example 138, hydrochloride]
240

Another compound to look at: CC(=O)Nc1cc(-c2cccc(-n3cnn(C/C(=C/F)CN)c3=O)c2C)ccn1
740

Also CC(=O)Nc1ccc(-c2cc(C)c(-n3cnn(C/C(=C/F)CN)c3=O)cn2)cc1 , if possible.
110

###

Target: recombinant human DAO (diamine oxidase) (Homo sapiens)
Construct: purchased R&D systems
Test: Activity on recombinant human DAO, Amplex Red method, 1 mM putrescine substrate
Assay type: biochemical
Conditions: recombinant human DAO, 1 mM putrescine substrate; bound qualified by footnote * / **; read-out: Inhibitory Activity (IC50, nM) DAO
Structures can show the parent of a compound that is named as a salt.
Measurement Name: IC50

# Compound, Assayed System, IC50
rows = [
    ("NC/C(=C\\F)Cn1ncn(-c2cc(-c3ccc4c(c3)OCO4)ccn2)c1=O [Example 170]", "recombinant human DAO (diamine oxidase) (Homo sapiens)", "< 100 nM"),
]

Consider now this further compound.
Please report the recorded IC50 for NC/C(=C\F)Cn1ncn(-c2cccc(-c3ccc4c(c3)NC(=O)CO4)n2)c1=O [Example 199, hydrochloride] .
< 100 nM

###

Below is a list of entries, each paired with its recorded IC50 value.
Molecular target: recombinant human MAO-A (monoamine oxidase-A) (Homo sapiens)
Construct: purchased Sigma-Aldrich
Sequence (P21397 1-527): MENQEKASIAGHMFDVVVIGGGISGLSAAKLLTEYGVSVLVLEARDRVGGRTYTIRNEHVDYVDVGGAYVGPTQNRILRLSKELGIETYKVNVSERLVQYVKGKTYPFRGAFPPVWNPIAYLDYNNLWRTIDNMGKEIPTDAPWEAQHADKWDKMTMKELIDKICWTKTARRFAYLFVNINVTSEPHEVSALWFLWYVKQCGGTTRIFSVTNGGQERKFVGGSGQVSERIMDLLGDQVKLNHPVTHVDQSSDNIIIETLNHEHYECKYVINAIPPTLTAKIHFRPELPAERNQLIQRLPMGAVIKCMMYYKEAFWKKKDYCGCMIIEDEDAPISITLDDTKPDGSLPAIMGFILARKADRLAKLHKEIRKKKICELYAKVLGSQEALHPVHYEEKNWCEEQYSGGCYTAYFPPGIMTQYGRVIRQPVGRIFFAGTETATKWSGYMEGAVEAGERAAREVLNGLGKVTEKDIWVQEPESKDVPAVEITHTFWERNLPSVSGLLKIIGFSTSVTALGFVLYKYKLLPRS
Assay: Activity on recombinant human MAO-A, Amplex Red method, 0.5 mM tyramine substrate
Format: biochemical
Settings: 0.5 mM tyramine substrate, read-out: Inhibitory Activity (IC50, nM) MAO-A
Protocol: The compounds according to the present technology were evaluated in terms of activity on recombinant human VAP-1 (R&D systems) by measuring the level of hydrogen peroxide in horseradish peroxidase (HRP)-coupled reaction using Amplex Red Hydrogen Peroxide Assay Kit (Molecular Probes, Invitrogen, USA). […] The inhibitory effect of the compounds was measured as a decrease (%) in the signal rate as compared to the control group without any inhibitor (only diluted DMSO). […]
Structures can show the parent of a compound that is named as a salt.
Enter your answer as a number in nM; do not include the unit.

Example cases with answers are listed next.
# Molecule, Uom, IC50
measured = [
    ("NC/C(=C\\F)Cn1ncn(-c2cccc(-c3ccc(-c4ccon4)cc3)n2)c1=O", "nM", 7900),
    ("Cc1cc(-n2cnn(C/C(=C/F)CN)c2=O)ncc1-c1ccc2c(c1)OCO2", "nM", 1510),
    ("NC/C(=C\\F)Cn1ncn(-c2cccc(-c3ccc(-c4noc(C5CC5)n4)cc3)n2)c1=O [Example 178, hydrochloride]", "nM", 74000),
]

Shifting focus to the molecule that follows.
Recorded IC50 of CC(C)c1nc(-c2ccc(-c3cccc(-n4cnn(C/C(=C/F)CN)c4=O)n3)cc2)no1 , please.
120000
